For each entry below, report its koff value.
# tested.system: human interleukin 13 receptor alpha 1 (IL-13Rα1), biotinylated ectodomain (human) (UniProt P78552)
# measurement.protocol: SPR (Biacore T100), biotinylated receptor on SA chip, 1:1 kinetic fit
Form entry: value (s⁻¹) — number only.

Query :: Consider the binder shown here: A11 (ligand, also called IL-13 variant A11 (L10V, V18I, D87S, T88S, L101F, K104R, K105T)) cytokine: PGPVPPSTAVRELIEELINITQNQKAPLCNGSMVWSINLTAGMYCAALESLINVSGCSAIEKTQRMLSGFCPHKVSAGQFSSLHVRSSKIEVAQFVKDLLFHLRTLFREGQFN What is its recorded koff?
Result :: 0.0013

Query :: A8 (ligand, also called IL-13 variant A8 (L10I, V18I, D87S, T88S, K89R, L101H, K104R, K105T)) cytokine: PGPVPPSTAIRELIEELINITQNQKAPLCNGSMVWSINLTAGMYCAALESLINVSGCSAIEKTQRMLSGFCPHKVSAGQFSSLHVRSSRIEVAQFVKDLLHHLRTLFREGQFN ?
Result :: 0.0033
